# assay_protocol: mRNA encapsulation efficiency of LNP formulations (Quant-it Ribogreen assay with Triton-X100)
# Format: physicochemical
# condition_set: Table 4; N/P ratio 3:1; DMPE-PEG2000
Please respond with reported % EE for every item in the list.
The number alone won't do; follow it with the unit.

Some solved cases for reference:
INSERT INTO results (compound, assay_metric, value_observed) VALUES
  ('CCCCCCCC(CCCCCCC)COC(=O)CCCCCCC(CCCCCCC(=O)OCC(CCCCCCC)CCCCCCC)NC1CC2(COC2)C1', '% EE', '97%'),
  ('CCCCCCCCC(CCCCCCCC)OC(=O)CCCCCCC(CCCCCCC(=O)OC(CCCCCCCC)CCCCCCCC)NC1CC2(COC2)C1', '% EE', '96%'),
  ('CCCCCCCCC(C)OC(=O)CCCCCCCC(CCCCCCCC(=O)OC(CCCCCCCC)CCCCCCCC)NC1CC2(COC2)C1 (stereo not shown)', '% EE', '94%');

Please find the next compound below.
State its % EE for this compound: CCCCCCC(CCCCCC)COC(=O)CCCCCCCC(CCCCCCCC(=O)OCC(CCCCCC)CCCCCC)NC1CC2(COC2)C1
96%
